- TARGET_UNDER_TEST: IDH (endogenous IDH1 R132C) in HT1080 cell (Homo sapiens, UniProt O75874, R132C)
- Construct: which harbor endogenous heterozygous IDH1 R132C and R132H mutation respectively and accumulate D-2-HG
- ASSAY_OVERVIEW: Cell-based assay for IDH inhibition (decrease of D-2-HG) in HT1080 cells
- MEASUREMENT_CONTEXT: human fibrosarcoma cell line HT1080, 16 hours treatment, D-2-HG by LC-MS, in triplet
READOUT_NAME: IC50

Some solved entries appear below for comparison.
compound="CCN1Cc2c(ccnc2N[C@@H](C)c2ccc(-c3ccnc4ccccc34)c(F)c2)C1=O [Compound 70]" measured="> 1000 nM"
compound="CCN1Cc2c(ccnc2N[C@@H](C)c2cc(F)c(-c3ccnc(C(F)(F)F)c3)cc2F)C1=O [Compound 88]" measured="> 1000 nM"
compound="CCN1Cc2c(ccnc2N[C@@H](C)c2cc(F)c(-c3cc(C(C)(C)F)c(OC)cn3)cc2F)C1=O [Compound 135]" measured="< 100 nM"
compound="CCN1Cc2c(ccnc2N[C@@H](C)c2cc(F)c(O[C@H]3C[C@@H](C)CC(C)(C)C3)cc2F)C1=O [Compound 24]" measured="< 100 nM"
compound="CCN1Cc2c(ccnc2N[C@@H](C)c2cc(F)c(O[C@@H]3C[C@@H](C)CC(C)(C)C3)cc2F)C1=O [Compound 23]" measured="< 100 nM"

Okay, here is my list. What is IC50 for each of these?
1. CCN1Cc2c(ccnc2N[C@@H](C)c2cc(F)c(-c3cncc(C(C)(C)C)c3)cc2F)C1=O [Compound 109]
2. CCN1Cc2c(ccnc2N[C@@H](C)c2cc(F)c(-c3ccnc(-c4cncc(Cl)c4)c3)cc2F)C1=O [Compound 100]

< 100 nM
100 to 500 nM

###

- TARGET_UNDER_TEST: IDH1 R132C (Homo sapiens, UniProt O75874, R132C)
- Construct: 6xHis
- Sequence (O75874 whole entry R132C): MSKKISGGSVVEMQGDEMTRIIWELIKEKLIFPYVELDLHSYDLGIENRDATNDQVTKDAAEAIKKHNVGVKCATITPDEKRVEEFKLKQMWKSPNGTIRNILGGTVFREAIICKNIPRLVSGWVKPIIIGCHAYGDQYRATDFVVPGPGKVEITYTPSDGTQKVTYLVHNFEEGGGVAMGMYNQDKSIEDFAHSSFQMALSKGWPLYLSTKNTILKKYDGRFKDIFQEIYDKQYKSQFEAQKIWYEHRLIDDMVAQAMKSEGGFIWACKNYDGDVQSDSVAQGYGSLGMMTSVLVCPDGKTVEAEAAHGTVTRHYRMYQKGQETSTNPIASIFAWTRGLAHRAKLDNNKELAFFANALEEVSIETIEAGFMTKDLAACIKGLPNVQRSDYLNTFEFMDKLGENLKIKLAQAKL
- ASSAY_OVERVIEW: Biochemical assay for IDH inhibition (NADPH fluorescence), mutant IDH1 R132C
- MEASUREMENT_CONTEXT: 25 nM IDH1-R132C, 1 hour pre-incubation, in triplet
pIC50: −log10 of the molar value.
READOUT_NAME: pIC50

compound="CCN1Cc2c(ccnc2N[C@@H](C)c2cc(F)c(-c3cc(C(F)(F)F)c(O)cn3)cc2F)C1=O [Compound 164]" readout_name=pIC50 measured="6.00 to 6.30"
compound="CCN1Cc2c(ccnc2N[C@@H](C)c2ccc(Oc3ccc4c(ccn4C)c3)c(F)c2)C1=O [Compound 3]" readout_name=pIC50 measured="6.30 to 7.00"
compound="CCN1Cc2c(ccnc2N[C@@H](C)c2cc(F)c(-c3cc(C(F)(F)F)cc(C)n3)cc2F)C1=O [Compound 122]" readout_name=pIC50 measured="> 7.00"

Now consider a different compound.
Recall the recorded pIC50 for CCN1Cc2c(ccnc2N[C@@H](C)c2cc(F)c(-c3ccnc(C(C)(C)O)c3)cc2F)C1=O [Compound 103] with IDH1 R132C (Homo sapiens, UniProt O75874, R132C) and state it. < 6.00

###

Provide the recorded IC50 for the entries that follow.
- TARGET_UNDER_TEST: IDH (endogenous IDH1 R132C) in HT1080 cell (Homo sapiens, UniProt O75874, R132C)
- Construct: which harbor endogenous heterozygous IDH1 R132C and R132H mutation respectively and accumulate D-2-HG
- ASSAY_OVERVIEW: Cell-based assay for IDH inhibition (decrease of D-2-HG) in HT1080 cells
- MEASUREMENT_CONTEXT: human fibrosarcoma cell line HT1080, 16 hours treatment, D-2-HG by LC-MS, in triplet

Some solved entries appear below for comparison.
compound=CCN1Cc2c(ccnc2N[C@@H](C)c2ccc(Oc3ccnc4ccccc34)c(F)c2)C1=O readout_name=IC50 measured="> 1000 nM"
compound=CCN1Cc2c(ccnc2N[C@@H](C)c2ccc(-c3ccnc(CC4CC4)c3)c(F)c2)C1=O readout_name=IC50 measured="500 to 1000 nM"

Okay, here is my list. What is IC50 for each of these?
1. CCN1Cc2c(ccnc2N[C@@H](C)c2cc(C(C)(C)C)ncc2F)C1=O
2. CCN1Cc2c(ccnc2N[C@@H](C)c2cc(F)c(-c3cc(C(C)(C)F)ccn3)cc2F)C1=O
3. CCN1Cc2c(ccnc2N[C@@H](C)c2ccc(OCC3CNC3)c(F)c2)C1=O
4. CCN1Cc2c(ccnc2N[C@@H](C)c2cc(F)c(-c3cc(C(C)(C)F)nc(OC)n3)cc2F)C1=O
5. CCN1Cc2c(N[C@@H](C)c3ccc(Oc4ccc(C)cc4)c(F)c3)ncnc2C1=O
6. CCN1Cc2c(ccnc2N[C@@H](C)c2ccc(Cc3ccc(F)c(C)c3)c(F)c2)C1=O

1. > 1000 nM
2. < 100 nM
3. > 1000 nM
4. < 100 nM
5. 100 to 500 nM
6. > 1000 nM

Okay, here is my list. What is IC50 for each of these?
1. CCN1Cc2c(ccnc2N[C@@H](C)c2ccc(Oc3cnn(C)c3)c(F)c2)C1=O
2. C[C@H](Nc1nccc2c1CN(CC(F)CF)C2=O)c1ccc(-c2ccnc(C(C)(C)C)c2)c(F)c1 (stereo partly shown)
3. CCN1Cc2c(ccnc2N[C@@H](C)c2ccc(-c3cc(C)nc(C)c3)c(F)c2)C1=O
4. CCN1Cc2c(ccnc2N[C@@H](C)c2ccc(-c3ccccc3)c(F)c2)C1=O

1: > 1000 nM; 2: > 1000 nM; 3: > 1000 nM; 4: > 1000 nM

Okay, here is my list. What is IC50 for each of these?
1. CCN1Cc2c(ccnc2N[C@@H](C)c2cc(F)c(-c3cc(C(C)(C)F)c(O)cn3)cc2F)C1=O
2. CCN1Cc2c(ccnc2N[C@@H](C)c2cc(F)c(-c3cc(C(C)(C)F)ncc3OC)cc2F)C1=O
3. C/C=C(\c1ccnc(-c2cc(F)c([C@H](C)Nc3nccc4c3CN(CC)C4=O)cc2F)c1)C(F)(F)F

1. 100 to 500 nM
2. 100 to 500 nM
3. < 100 nM

Okay, here is my list. What is IC50 for each of these?
1. CCN1Cc2c(N[C@@H](C)c3ccc(-c4ccnc(C(C)(C)C)c4)c(F)c3)ncnc2C1=O
2. CCN1Cc2c(N[C@@H](C)c3cn(-c4ccc(F)cc4)cn3)ncc(F)c2C1=O
3. CCN1Cc2c(ccnc2N[C@@H](C)c2ccc(-c3ccnc(C(F)(F)F)c3)c(F)c2)C1=O

1: 500 to 1000 nM; 2: > 1000 nM; 3: > 1000 nM

###

- TARGET_UNDER_TEST: IDH1 R132H (Homo sapiens, UniProt O75874, R132H)
- Construct: 6xHis
- Sequence (O75874 whole entry R132H): as the sequence (O75874 whole entry R132C) above, with C132H counted along it
- ASSAY_OVERVIEW: Biochemical assay for IDH inhibition (NADPH fluorescence), mutant IDH1 R132H
- MEASUREMENT_CONTEXT: 50 nM IDH1-R132H, 1 hour pre-incubation, in triplet
READOUT_NAME: IC50

Some solved entries appear below for comparison.
chemical_smiles=CCN1Cc2c(ccnc2N[C@@H](C)c2cc(C)c(-c3ccnc(C(F)(F)F)c3)cn2)C1=O measured="> 1000 nM"
chemical_smiles=CCN1Cc2c(ccnc2N[C@@H](C)c2ccc(-n3ccc(C)n3)c(F)c2)C1=O measured="> 1000 nM"
chemical_smiles=CCN1Cc2c(N[C@@H](C)c3ccc(-c4ccnc(C(C)(C)C)c4)c(F)c3)ncnc2C1=O measured="100 to 500 nM"

Okay, here is my list. What is IC50 for each of these?
1. CCN1Cc2c(ccnc2N[C@@H](C)c2cc(F)c(-c3cc(C(C)(C)F)c(COC)cn3)cc2F)C1=O
2. CCN1Cc2c(ccnc2N[C@@H](C)c2ccc(-c3ccnc(C4(O)CCC4)c3)c(F)c2)C1=O
3. CCN1Cc2c(ccnc2N[C@@H](C)c2cc(F)c(-c3cc(C(C)(C)F)ncc3OC)cc2F)C1=O
4. CCN1Cc2c(ccnc2N[C@@H](C)c2ccc(Oc3ccc4c(ccn4C)c3)c(F)c2)C1=O
5. CCN1Cc2c(ccnc2N[C@@H](C)c2ncc(-c3ccc(F)c(C)c3)cn2)C1=O

1: < 100 nM; 2: > 1000 nM; 3: < 100 nM; 4: 100 to 500 nM; 5: > 1000 nM

###

Provide the recorded IC50 for the entries that follow.
- TARGET_UNDER_TEST: IDH1 R132H (Homo sapiens, UniProt O75874, R132H)
- Construct: 6xHis
- ASSAY_OVERVIEW: Biochemical assay for IDH inhibition (NADPH fluorescence), mutant IDH1 R132H
- MEASUREMENT_CONTEXT: 50 nM IDH1-R132H, 1 hour pre-incubation, in triplet

chemical_smiles=CCN1Cc2c(ccnc2N[C@@H](C)c2cc(F)c(O[C@@H]3C[C@@H](C)CC(C)(C)C3)cc2F)C1=O measured="< 100 nM"

Okay, here is my list. What is IC50 for each of these?
1. CCN1Cc2c(ccnc2N[C@@H](C)c2cc(F)c(-c3cc(OC(C)(C)C)cc(C)n3)cc2F)C1=O
2. CCN1Cc2c(ccnc2N[C@@H](C)c2ccc(-c3ccc(C)cn3)c(F)c2)C1=O
3. CCN1Cc2c(ccnc2N[C@@H](C)c2cc(F)c(-c3cc(C#N)ccn3)cc2F)C1=O
4. CCN1Cc2c(ccnc2N[C@@H](C)c2ccc(-c3ccnc(C(C)(C)C)c3)cn2)C1=O
5. CCN1Cc2c(ccnc2N[C@@H](C)c2ccc(OC3CCCCC3)c(F)c2)C1=O
6. CCN1Cc2c(ccnc2N[C@@H](C)c2cc(F)c(-c3ccnc(C4CC(F)(F)C4)c3)cc2F)C1=O
7. CCN1Cc2c(ccnc2N[C@@H](C)c2cc(F)c(-c3ccnc(C4CCC4)c3)cc2F)C1=O

1: < 100 nM; 2: > 1000 nM; 3: > 1000 nM; 4: > 1000 nM; 5: > 1000 nM; 6: 100 to 500 nM; 7: < 100 nM
